- Target under test: Alpha-2C adrenergic receptor (Homo sapiens)
- Sequence (P18825 whole entry): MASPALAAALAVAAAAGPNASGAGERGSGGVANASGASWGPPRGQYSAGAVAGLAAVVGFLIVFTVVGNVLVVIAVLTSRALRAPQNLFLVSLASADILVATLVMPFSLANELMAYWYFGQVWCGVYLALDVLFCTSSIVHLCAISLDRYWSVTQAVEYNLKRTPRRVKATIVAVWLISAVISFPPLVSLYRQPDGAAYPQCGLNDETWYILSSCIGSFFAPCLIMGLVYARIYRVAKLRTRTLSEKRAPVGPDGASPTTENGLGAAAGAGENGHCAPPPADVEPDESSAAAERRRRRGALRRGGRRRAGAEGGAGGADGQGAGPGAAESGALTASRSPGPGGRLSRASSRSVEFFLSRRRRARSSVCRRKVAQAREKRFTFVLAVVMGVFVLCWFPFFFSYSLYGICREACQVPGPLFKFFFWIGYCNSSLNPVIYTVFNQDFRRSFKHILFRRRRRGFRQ
Parameter measured: Ki
Please format your answer as a value with the unit trailing.

{"Structure string": "COc1cc2c(cc1OC)C1=NO[C@@H](CN3CCN(C/C(C)=C/c4cccs4)CC3)[C@@H]1CO2", "Ki": "0.2 nM"}
{"Structure string": "COc1cc2c(cc1OC)C1=NO[C@@H](CN3CCN(C/C=C(\\C)c4ccc(O)cc4)CC3)[C@@H]1CO2", "Ki": "0.6 nM"}
{"Structure string": "COc1cc2c(cc1OC)C1=NO[C@@H](CN3CCN(C/C=C(\\C)c4ccccc4OC)CC3)[C@@H]1CO2", "Ki": "0.9 nM"}
{"Structure string": "COc1cc2c(cc1OC)C1=NO[C@@H](CN3CCN(C/C(C)=C/c4ccsc4)CC3)[C@@H]1CO2", "Ki": "0.2 nM"}
{"Structure string": "COc1cc2c(cc1OC)C1=NO[C@@H](CN3CCN(C/C=C/c4ccccc4F)CC3)[C@@H]1CO2", "Ki": "2.8 nM"}

--- query ---
Q. Reported Ki for COc1cc2c(cc1OC)C1=NO[C@@H](CN3CCN(C/C=C(\C)c4ccsc4)CC3)[C@@H]1CO2 : what is it?
A. 0.3 nM

###

- Target under test: Sodium-dependent serotonin transporter (Homo sapiens)
- Sequence (P31645 whole entry): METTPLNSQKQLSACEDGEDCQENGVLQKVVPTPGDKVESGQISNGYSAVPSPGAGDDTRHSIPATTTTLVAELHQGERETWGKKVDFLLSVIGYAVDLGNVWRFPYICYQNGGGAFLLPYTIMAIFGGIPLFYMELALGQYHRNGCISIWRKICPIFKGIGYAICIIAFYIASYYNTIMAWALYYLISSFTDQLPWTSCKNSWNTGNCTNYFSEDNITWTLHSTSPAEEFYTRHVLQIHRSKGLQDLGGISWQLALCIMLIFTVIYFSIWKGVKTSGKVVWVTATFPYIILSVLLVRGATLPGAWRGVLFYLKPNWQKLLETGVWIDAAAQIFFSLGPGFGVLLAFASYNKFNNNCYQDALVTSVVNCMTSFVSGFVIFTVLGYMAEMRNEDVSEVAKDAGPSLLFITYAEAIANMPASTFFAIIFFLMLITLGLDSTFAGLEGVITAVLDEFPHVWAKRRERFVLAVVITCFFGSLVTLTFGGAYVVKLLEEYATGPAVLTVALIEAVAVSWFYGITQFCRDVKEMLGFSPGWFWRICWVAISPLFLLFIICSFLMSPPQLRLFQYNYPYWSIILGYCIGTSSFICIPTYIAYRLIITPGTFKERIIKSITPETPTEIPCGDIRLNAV
Parameter measured: Ki
Please format your answer as a value with the unit trailing.

{"Structure string": "COc1cc2c(cc1OC)C1=NO[C@@H](CN3CCN(C/C=C(\\C)c4ccc(F)cc4)CC3)[C@@H]1CO2", "Target under test": "Sodium-dependent serotonin transporter (Homo sapiens)", "Ki": "1.3 nM"}
{"Structure string": "COc1cc2c(cc1OC)C1=NO[C@@H](CN3CCN(C/C=C(\\C)c4ccccc4)CC3)[C@@H]1CO2", "Target under test": "Sodium-dependent serotonin transporter (Homo sapiens)", "Ki": "4.5 nM"}
{"Structure string": "COc1cc2c(cc1OC)C1=NO[C@@H](CN3CCN(C/C=C/c4cccc(F)c4)CC3)[C@@H]1CO2", "Target under test": "Sodium-dependent serotonin transporter (Homo sapiens)", "Ki": "2.5 nM"}
{"Structure string": "COc1cc2c(cc1OC)C1=NO[C@@H](CN3CCN(C/C=C(\\C)c4ccsc4)CC3)[C@@H]1CO2", "Target under test": "Sodium-dependent serotonin transporter (Homo sapiens)", "Ki": "4.8 nM"}
{"Structure string": "COc1cc2c(cc1OC)C1=NO[C@@H](CN3CCN(C/C=C/c4ccccc4)CC3)[C@@H]1CO2", "Target under test": "Sodium-dependent serotonin transporter (Homo sapiens)", "Ki": "8.3 nM"}

Provide Ki for all items below, preserving their order.
1. COc1cc2c(cc1OC)C1=NO[C@@H](CN3CCN(C/C(C)=C/c4ccsc4)CC3)[C@@H]1CO2
2. COc1cc2c(cc1OC)C1=NO[C@@H](CN3CCN(C/C=C/c4ccccc4F)CC3)[C@@H]1CO2

A.
["1.9 nM", "13 nM"]
